Where do the numbers come from? From paper PMC10786891.

Molecular target: T1, EsCas13d, nuclease-dead (Eubacterium siraeum, UniProt B0MS50, R295A;H300A;R849A;H854A)
T1 sequence: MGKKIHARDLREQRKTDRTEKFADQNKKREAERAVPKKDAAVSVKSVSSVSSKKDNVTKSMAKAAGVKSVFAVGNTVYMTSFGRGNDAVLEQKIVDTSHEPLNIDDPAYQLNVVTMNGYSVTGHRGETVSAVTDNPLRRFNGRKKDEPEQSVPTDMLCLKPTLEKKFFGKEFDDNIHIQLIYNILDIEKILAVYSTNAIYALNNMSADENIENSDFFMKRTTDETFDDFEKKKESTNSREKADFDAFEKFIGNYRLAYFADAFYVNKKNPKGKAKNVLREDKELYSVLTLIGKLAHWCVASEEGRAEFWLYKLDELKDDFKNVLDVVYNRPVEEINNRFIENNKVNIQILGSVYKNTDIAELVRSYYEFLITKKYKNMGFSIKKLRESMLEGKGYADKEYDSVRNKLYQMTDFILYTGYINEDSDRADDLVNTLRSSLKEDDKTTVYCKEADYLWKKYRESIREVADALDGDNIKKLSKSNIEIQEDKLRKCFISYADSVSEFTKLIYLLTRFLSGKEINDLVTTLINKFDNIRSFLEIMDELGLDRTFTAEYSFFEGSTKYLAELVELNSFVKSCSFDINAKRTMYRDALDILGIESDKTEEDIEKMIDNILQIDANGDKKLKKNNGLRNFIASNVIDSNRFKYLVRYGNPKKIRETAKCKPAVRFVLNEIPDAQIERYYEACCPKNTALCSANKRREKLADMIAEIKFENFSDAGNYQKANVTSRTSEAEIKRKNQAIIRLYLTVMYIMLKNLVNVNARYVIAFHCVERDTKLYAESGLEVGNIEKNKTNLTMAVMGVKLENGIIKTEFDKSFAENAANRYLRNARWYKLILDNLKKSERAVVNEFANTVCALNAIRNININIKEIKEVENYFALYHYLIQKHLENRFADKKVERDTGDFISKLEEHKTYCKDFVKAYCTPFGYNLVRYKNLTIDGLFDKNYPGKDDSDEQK
Assay: crRNA (strand 1, pre-loaded); Mg2+; 40 mM Tris-HCl pH 7.5, 150 mM NaCl, 6 mM MgCl2, 1 mM DTT, 0.1% Tween-20, 0.2 mg/ml BSA; 25 C; 10 min per concentration, then washed
Conditions: tags: His6-TwinStrep-SUMO cleaved; N-terminal SNAP kept (SNAP-Surface 488); label: 3' end held by stalled T7 RNA polymerase
property label: Kd (nM)
Answers are plain numbers, in nM.

Example entries and their recorded answers appear below.
target 3 insA 3' of 22 (mixed) RNA 1: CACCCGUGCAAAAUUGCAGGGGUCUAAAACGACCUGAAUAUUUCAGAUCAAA RNA 2: GGGAAUGGAUCCACAUCUACGAAUUCGUUUAUUGAUCUGAAAUAUUCAGGUCUGCAGAUCGGAAGAGCACACGU :: 20.6
target 1 insA 3' of 11,insG 3' of 4 (mixed) RNA 1: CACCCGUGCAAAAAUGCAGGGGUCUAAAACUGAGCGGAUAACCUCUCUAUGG RNA 2: GGGAAUGGAUCCACAUCUACGAAUUCGUACCAUAGAGAGGUAUAUCCGCGUCACCGAGAUCGGAAGAGCACACGU :: 9.7

# input Item target 1 U8C,G15U (mixed) RNA 1: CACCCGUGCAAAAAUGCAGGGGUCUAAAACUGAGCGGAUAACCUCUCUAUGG RNA 2: GGGAAUGGAUCCACAUCUACGAAUUCGUACCAUAGAUAGGUUACCCGCUCACCGAGAUCGGAAGAGCACACGU : provide Kd
# output 34.6
